Tested on: OVCAR-4 ovarian
test_description: NCI-60 one-dose screen, 48 h
test_conditions: 10 µM unless noted
Compounds without any hit were thinned out: in the full panel of roughly 83,000, 20% have a hit. Active and inactive are the calls of the source. The calls were made as follows: active = growth percent below 10; inactive = the rest.
Possible outcomes: active, inactive

compound: CN(C)CCCC1(c2ccc(F)cc2)OCc2cc(-c3cccc4[nH]ccc34)ccc21 (stereo unspecified)
class: inactive

compound: NC(=O)c1c(NC(=O)c2ccccc2)sc2c1CCC(=O)C2
class: active

compound: O=C(CSc1nc2ccc([N+](=O)[O-])cc2[nH]1)Nc1cccc(C(F)(F)F)c1
class: inactive

compound: C=C1C(=O)O[C@H]2[C@H]1CC/C(COC(=O)CSCCSCC(=O)OC/C1=C/CC[C@@]3(C)O[C@H]3[C@H]3OC(=O)C(=C)[C@@H]3CC1)=C\CC[C@@]1(C)O[C@@H]21
class: inactive

compound: CCNc1nc(-c2ccc(Cl)c(OC)c2)c(-c2ccnc(NCCCNS(=O)(=O)c3ccc(Cl)cc3)n2)s1
class: inactive

compound: CCCC(=O)NC(c1ccc2c(c1)OCO2)c1ccc2cccnc2c1O (stereo unspecified)
class: inactive

###

Test system: 786-0 renal
test_description: NCI-60 one-dose screen, 48 h
test_conditions: 10 µM unless noted
This is part of a sample that, as a whole, favours compounds with a hit. Of some 83,000 tested, about 20% had one in any assay. Activity calls are given as the source filed them. The calls were made as follows: active = growth percent below 10; inactive = the rest.
Possible outcomes: 1.0 for active, 0.0 for inactive

molecule: COc1ccc2nc(NC(=O)CSc3nnc4n3S(=O)(=O)c3ccccc3N4C)sc2c1
class: 0.0
//
molecule: CC1(C)CC[C@]2(c3nnc(-c4ccncc4)o3)CC[C@H]3C(=CC[C@H]4[C@@]3(C)CC[C@H]3C(C)(C)C(=O)CC[C@]43C)[C@@H]2C1
class: 0.0
//
molecule: O=C(Cn1cc(CN2CCCCCC2)nn1)Nc1ccc2c(ccn2Cc2ccccc2)c1
class: 0.0
//
molecule: C/C(Nc1ccc(Cl)c(Cl)c1)=C1\CCOC1=O
class: 0.0
//
molecule: C=CCn1c(SCC(=O)Nc2ccc(C(=O)/C=C/c3cc4cc(OC)ccc4nc3Cl)cc2)nnc1-c1ccc(Br)cc1
class: 0.0
//
molecule: COC(=O)[C@H]1CCCN1C[C@@H](O)CN1C(=O)/C(=C\c2cc(OC)c(OC)c(OC)c2)c2ccccc21
class: 0.0
//
molecule: C/C(=C(/c1ccc(Cl)cc1)c1ccc(OCCN2CCCC2)cc1)c1ccc(Cl)cc1
class: 0.0
//
molecule: Oc1ccc(CCn2c(O)c(/C=C3\CN=c4ccccc4=N3)sc2=S)cc1
class: 0.0
//
molecule: CC[C@]12C=CCN3CC[C@@]4(c5cc(NC(=O)CCC(=O)OCc6cn(Cc7ccc(F)cc7)nn6)c(OC)cc5N(C)[C@H]4[C@@](O)(C(=O)OC)[C@@H]1OC(C)=O)[C@@H]32
class: 0.0
//
molecule: N#C/C(=C\c1ccc2ccccc2c1)c1cc2ccccc2[nH]1
class: 0.0
//
molecule: CN(C)CCCC1(c2ccc(F)cc2)OCc2cc(-c3cncc4ccccc34)ccc21 (centres undefined)
class: 0.0
//
molecule: COC(=O)CNC(=O)[C@H](Cc1ccccc1)NCc1ccncc1
class: 0.0
//
molecule: CC(C)(C)[Si](C)(C)O[C@H]1C(=O)C=CN2CC=C[C@@H]12
class: 0.0
//
molecule: CCN(CC)CCSc1nc(-c2ccccc2)c(C#N)c(=O)[nH]1
class: 0.0
//
molecule: COc1cc2c(c(OC)c1OC)C(=O)CC(c1cccc(NC(=O)c3ccc(Br)cc3)c1)O2 (centres undefined)
class: 0.0
//
molecule: C[C@]12CC[C@@H]3c4ccc(O)c([N+](=O)[O-])c4CC[C@H]3[C@@H]1CCC2=O
class: 0.0
//
molecule: Cc1ccc(Cc2cnc(NC(=O)c3cc(Br)cs3)s2)cc1
class: 0.0
//
molecule: CCn1c(SCC(=O)c2ccc(Br)cc2)nnc1-c1ccncc1
class: 0.0
//
molecule: CN1CCN(c2ccc(NC(=O)c3cncnc3Nc3ccc(OCc4ccccn4)c(Cl)c3)cc2)CC1
class: 1.0
